tested on: Fibroblast; test: Multiplex assay against human fibroblast; type: toxicity, cell-based; conditions: 12 h, 10 µM, compound concentration 10 uM, replicate 1
quantity-measured: Total Cell Count

Cc1cc(-c2ccc3c(c2)CC[C@H]3N2CC3(CCN(C(=O)Cc4cn5cc(C)sc5n4)CC3)C2)ncn1
186
CCn1c(-c2nc3cc(C(=O)N4CCCC(N)C4)ccc3n2C)cc2ccccc21.Cl (configuration not stated)
221
C[C@H](NC(=O)CNC(=O)c1cccc(Cl)c1)c1ccccc1
106
COc1cc(C(=O)N2CC[C@@H](O)[C@@H](N)C2)cc2nc(-c3cc4ccccc4n3CC3CC3)n(C)c12.Cl
271
COC(c1ccccc1)(c1ccccc1)[C@H](Oc1nc(C)cc(C)n1)C(=O)O
145
CC(C)C[C@H](CO)Nc1nc(S[C@@H](C)c2ccccc2)nc2nc(N)sc12
156
CN(C)C/C=C/C(=O)Nc1ccc(C(=O)N2CCCC(Nc3ncc(Cl)c(-c4c[nH]c5ccccc45)n3)C2)cc1 (configuration not stated)
140
